# System name: human GCG receptor (human, UniProt P47871 26-477)
# Sequence (P47871 26-477): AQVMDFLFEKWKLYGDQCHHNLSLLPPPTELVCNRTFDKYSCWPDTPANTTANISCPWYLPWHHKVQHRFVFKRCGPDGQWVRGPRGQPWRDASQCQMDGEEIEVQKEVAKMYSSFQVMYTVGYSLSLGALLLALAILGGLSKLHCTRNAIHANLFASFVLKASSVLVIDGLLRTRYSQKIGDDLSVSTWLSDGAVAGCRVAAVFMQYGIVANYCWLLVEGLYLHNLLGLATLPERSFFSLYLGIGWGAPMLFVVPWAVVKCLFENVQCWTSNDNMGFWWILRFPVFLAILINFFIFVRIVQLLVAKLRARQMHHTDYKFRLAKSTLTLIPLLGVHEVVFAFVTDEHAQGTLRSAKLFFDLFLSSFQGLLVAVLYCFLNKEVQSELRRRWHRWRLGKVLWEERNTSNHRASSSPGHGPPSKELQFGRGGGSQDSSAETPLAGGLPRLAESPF
# Protocol notes: cell-based or functional assay
Bridges are numbered along the chain shown (N, C = ends). Where no end group is shown, it is not given here. [ ]: non-standard residue; d: D form. Aib = CC(C)(N)C(=O)O
Each entry below lists one item and its recorded In vitro activity (%) vs. Glucagon, cAMP EC50 value.
// units = %; emit number, no label

For orientation, consider the following solved cases.
H[Aib]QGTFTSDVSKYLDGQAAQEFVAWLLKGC [triple agonist of SEQ ID NO: 8]: 0.1
H[Aib]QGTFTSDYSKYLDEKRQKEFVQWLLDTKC (bridge 16-20) [triple agonist of SEQ ID NO: 78]: 14
H[Aib]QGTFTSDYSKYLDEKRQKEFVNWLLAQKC (bridge 16-20) [triple agonist of SEQ ID NO: 34]: 0.92

Now turn to the next binder.
Entry under review: Y[Aib]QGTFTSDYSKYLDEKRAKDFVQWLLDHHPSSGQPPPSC (bridge 16-20) [triple agonist of SEQ ID NO: 76] . Reported In vitro activity (%) vs. Glucagon, cAMP EC50?
47.6
